Assay explanation: acute toxicity (LD50), intraperitoneal, 48 hours observation
Condition details: mouse, in vivo, ip; read-out: Toxicity LD5
Assay endpoint: LD50 at 48 h (mg/kg)
Unit mg/kg implied. Number only.

Tell me measured LD50 at 48 h for COc1cc2[nH]nc(C(=O)NNC(C)c3ccc([N+](=O)[O-])cc3)c2cc1OC (centres unmarked) please.
5000

###

Assay explanation: acute toxicity (LD50), intraperitoneal, 48 hours observation
Condition details: mouse, in vivo, ip; white mice, intraperitoneal, 48 hours observation; read-out: Toxicity LD5
Reported LD50 at 48 h by item:
Respond numerically; units are mg/kg and should not be typed.

                                   molecule  result
0  COc1ccc(CC(C)NNC(=O)c2n[nH]c3cc(OC)c(OC)cc23)cc1OC (stereo not shown) [Compound 37]    2700

Query LD50 at 48 h for COc1cc2[nH]nc(C(=O)NNC(C)C)c2cc1OC [Compound 7]
720

Entry COc1cc2[nH]nc(C(=O)NNC3CCCCCC3)c2cc1OC [Compound 28] needs its LD50 at 48 h filled in; supply it.
1200

Look up LD50 at 48 h of COc1ccc(Cc2nccc3cc(OC)c(OC)cc23)cc1OC [papaverine, reference compound] and report it.
132
